Source of measurements: ChEMBL document CHEMBL1127073

Molecular target: Carnitine O-palmitoyltransferase 1, liver isoform (Rattus norvegicus, UniProt P32198)
Sequence (P32198 whole entry, canonical isoform): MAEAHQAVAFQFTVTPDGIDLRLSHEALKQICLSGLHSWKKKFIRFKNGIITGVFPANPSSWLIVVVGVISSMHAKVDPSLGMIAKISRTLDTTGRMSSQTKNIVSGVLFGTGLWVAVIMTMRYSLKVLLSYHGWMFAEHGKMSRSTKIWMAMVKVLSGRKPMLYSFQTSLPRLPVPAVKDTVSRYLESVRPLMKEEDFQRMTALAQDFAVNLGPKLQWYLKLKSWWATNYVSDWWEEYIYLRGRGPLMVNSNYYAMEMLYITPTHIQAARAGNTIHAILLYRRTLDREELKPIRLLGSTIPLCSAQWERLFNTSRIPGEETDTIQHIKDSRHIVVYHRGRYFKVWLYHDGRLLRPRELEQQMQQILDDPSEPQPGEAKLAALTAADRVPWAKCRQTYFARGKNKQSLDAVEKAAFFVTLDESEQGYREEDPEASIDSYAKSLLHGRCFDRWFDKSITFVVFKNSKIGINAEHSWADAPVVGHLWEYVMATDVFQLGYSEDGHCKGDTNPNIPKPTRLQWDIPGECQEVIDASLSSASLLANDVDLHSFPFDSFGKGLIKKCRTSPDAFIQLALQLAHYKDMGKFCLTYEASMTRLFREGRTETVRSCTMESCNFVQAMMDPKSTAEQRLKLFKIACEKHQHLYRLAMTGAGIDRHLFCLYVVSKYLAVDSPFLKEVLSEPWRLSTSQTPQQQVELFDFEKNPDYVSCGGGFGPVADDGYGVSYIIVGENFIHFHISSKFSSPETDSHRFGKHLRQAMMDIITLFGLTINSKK
Test: Compound was evaluated for its ability to inhibit carnitine palmitoyltransferase I activity in intact mitochondria from rat liver
measurement.name: pKi
One number for each entry, as −log10 of the molar value.

Could you share what pKi was measured for CCCCCCCCCCCCCCC[C@@]1(O)C[N+](C)(C)C[C@@H](CC(=O)[O-])O1 [HEMIACYLCARNITINIUM] , tested on Carnitine O-palmitoyltransferase 1, liver isoform (Rattus norvegicus, UniProt P32198)?
5.38
